- target or test system: 17β-HSD2 (Homo sapiens, UniProt P37059)
- Construct: was measured in intact cell monolayers of T47D and MDA-MB-231 breast cancer cells respectively; endogenous in cells; host or cells: MDA-MB-231 human breast cancer cells
- test name: 17β-HSD Type II activity in MDA-MB-231 cells (E2→E1)
- Type: cell-based
- conditions: 10 μM; MDA-MB-231 cells, E2→E1; read-out: % inhibition of 17β-HSD2 @ 10 μM
assay readout: inhibition at 10 µM (%)

- compound: "CN(C)c1ccc(CC2CC3C4CCc5cc(O)ccc5C4CC[C@]3(C)[C@H]2O)cc1 (some centres unmarked)"
  readout value: 25
- compound: "C[C@]12CCC3c4ccc(O)cc4CCC3C1CC(C(=O)NCC1CCCO1)[C@@H]2O (some centres unmarked)"
  readout value: 11
- compound: "C[C@]12CCC3c4ccc(O)cc4CCC3C1Cc1cn(CCC#N)nc12 (some centres unmarked)"
  readout value: 44
- compound: "C[C@]12CCC3c4ccc(O)cc4CCC3C1CC(CC(=O)NCC1CCCO1)C2=O (some centres unmarked)"
  readout value: 21
- compound: "C[C@]12CCC3c4ccc(O)cc4CCC3C1C/C(=C\\c1ccc(C#N)cc1)[C@@H]2O (some centres unmarked)"
  readout value: 31
- compound: "CO/N=C1\\CC2C(CC[C@]3(C)/C(=N/OC)CCC23)c2ccc(O)cc21 (some centres unmarked)"
  readout value: 31
- compound: "CCN(C)C(=O)CC1CC2C3CCc4cc(O)ccc4C3CC[C@]2(C)C1=O (some centres unmarked)"
  readout value: 5
- compound: "C[C@]12CCC3c4ccc(O)cc4CCC3C1CC(=N/O)/C2=N\\O (some centres unmarked)"
  readout value: -2
- compound: "COc1cc2c(cc1O)CCC1C2CC[C@]2(C)C(=O)C(C#N)CC12 (some centres unmarked)"
  readout value: 4
- compound: "CC(C)NC(=O)CC1CC2C3CCc4cc(O)ccc4C3CC[C@]2(C)C1=O (some centres unmarked)"
  readout value: 6
- compound: "CC(C)NC(=O)c1[nH]nc2c1CC1C3CCc4cc(O)ccc4C3CC[C@]21C (some centres unmarked)"
  readout value: 0.3
- compound: "CC1(C#N)CC2C3CCc4cc(O)ccc4C3CC[C@]2(C)C1=O (some centres unmarked)"
  readout value: 12
- compound: "C[C@]12CCC3c4ccc(O)cc4CCC3C1CC(CC(=O)O)[C@@H]2O (some centres unmarked)"
  readout value: 0
- compound: "CN(C)CCCNC(=O)CC1CC2C3CCc4cc(O)ccc4C3CC[C@]2(C)C1=O (some centres unmarked)"
  readout value: 13
- compound: "CC(C)/C=C1\\CC2C3CCc4cc(O)ccc4C3CC[C@]2(C)[C@H]1O (some centres unmarked)"
  readout value: 7
- compound: "C[C@]12CCC3c4ccc(O)cc4CCC3C1C/C(=C\\c1cccs1)[C@@H]2O (some centres unmarked)"
  readout value: 25
- compound: "Cn1c2c(c(=O)n1C)CC1C3CCc4cc(O)ccc4C3CC[C@]21C (some centres unmarked)"
  readout value: 15

###

- target or test system: 17β-HSD1 (Homo sapiens, UniProt P14061)
- Construct: was measured in intact cell monolayers of T47D and MDA-MB-231 breast cancer cells respectively; endogenous in cells; host or cells: T-47D human breast cancer cells
- Sequence (P14061 1-328): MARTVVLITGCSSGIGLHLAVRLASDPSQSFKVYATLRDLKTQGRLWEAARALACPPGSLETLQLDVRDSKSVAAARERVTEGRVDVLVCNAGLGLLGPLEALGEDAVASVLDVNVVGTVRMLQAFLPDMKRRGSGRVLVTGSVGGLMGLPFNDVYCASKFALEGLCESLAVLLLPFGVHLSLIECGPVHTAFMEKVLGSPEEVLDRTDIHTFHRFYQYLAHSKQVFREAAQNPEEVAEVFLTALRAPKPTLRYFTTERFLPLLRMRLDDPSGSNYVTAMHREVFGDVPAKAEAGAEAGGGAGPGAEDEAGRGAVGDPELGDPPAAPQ
- test name: 17β-HSD Type I activity in T-47D cells (E1→E2)
- Assay type: cell-based
- conditions: T47D, 10 μM; T-47D cells, E1→E2; read-out: % inhibition of 17β-HSD1 @ 10 μM
Returns one of satisfied or not satisfied; satisfied when inhibition at 10 µM is >= 80%.

- compound: "C[C@]12CCC3c4ccc(O)cc4CCC3C1CC(Cc1cccnc1)[C@@H]2O (stereo in doubt)"
  target or test system: "17β-HSD1 (Homo sapiens, UniProt P14061)"
  category: "satisfied"
- compound: "COC(=O)Cn1cc2c(n1)[C@@]1(C)CCC3c4ccc(O)cc4CCC3C1C2 (some centres unmarked)"
  target or test system: "17β-HSD1 (Homo sapiens, UniProt P14061)"
  category: "satisfied"
- compound: "CN(C)c1ccc(CC2CC3C4CCc5cc(O)ccc5C4CC[C@]3(C)[C@H]2O)cc1 (some centres unmarked)"
  target or test system: "17β-HSD1 (Homo sapiens, UniProt P14061)"
  category: "not satisfied"
- compound: "CCOC(=O)/C(O)=C1\\CC2C3CCc4cc(O)ccc4C3CC[C@]2(C)C1=O (some centres unmarked)"
  target or test system: "17β-HSD1 (Homo sapiens, UniProt P14061)"
  category: "not satisfied"
- compound: "C[C@]12CCC3c4ccc(O)cc4CCC3C1CC(Cc1ccccn1)[C@@H]2O (some centres unmarked)"
  target or test system: "17β-HSD1 (Homo sapiens, UniProt P14061)"
  category: "satisfied"
- compound: "CO/N=C1\\CC2C(CC[C@]3(C)/C(=N/OC)CCC23)c2ccc(O)cc21 (some centres unmarked)"
  target or test system: "17β-HSD1 (Homo sapiens, UniProt P14061)"
  category: "not satisfied"

###

- target or test system: 17β-HSD1 (Homo sapiens)
- Construct: was measured in intact cell monolayers of T47D and MDA-MB-231 breast cancer cells respectively; endogenous in cells; host or cells: T-47D human breast cancer cells
- test name: 17β-HSD Type I activity in T-47D cells (E1→E2)
- Format: cell-based
- conditions: T47D, 10 μM; T-47D cells, E1→E2; read-out: % inhibition of 17β-HSD1 @ 10 μM
Please note: condition met applies when inhibition at 10 µM is 80% or greater, and condition not met applies otherwise.

- compound: "CN(C)c1ccc(/C=C2\\CC3C4CCc5cc(O)ccc5C4CC[C@]3(C)C2=O)cc1 (some centres unmarked) [compound 477]"
  category: "condition not met"
- compound: "CCOC(=O)CC1CC2C3CCc4cc(O)ccc4C3CC[C@]2(C)[C@H]1O (some centres unmarked) [compound 574]"
  category: "condition not met"
- compound: "C[C@]12CCC3c4ccc(O)cc4CCC3C1CC(C#N)C2=O (some centres unmarked) [compound 207]"
  category: "condition met"
- compound: "CC1(C#N)CC2C3CCc4cc(O)ccc4C3CC[C@]2(C)C1=O (some centres unmarked) [compound 924]"
  category: "condition met"
- compound: "COc1cc(/C=C2\\CC3C4CCc5cc(OS(N)(=O)=O)ccc5C4CC[C@]3(C)C2=O)cc(OC)c1OC (some centres unmarked) [compound 692]"
  category: "condition not met"
- compound: "CCOC(=O)CC1CC2C3CCc4cc(O)ccc4C3CC[C@]2(C)C1=O (some centres unmarked) [compound 573]"
  category: "condition met"
- compound: "COC(=O)C1CC2C3CCc4cc(O)ccc4C3CC[C@]2(C)C1=O (some centres unmarked) [compound 568]"
  category: "condition not met"

###

- target or test system: 17β-HSD1 (Homo sapiens, UniProt P14061)
- Construct: was measured in intact cell monolayers of T47D and MDA-MB-231 breast cancer cells respectively; endogenous in cells; host or cells: T-47D human breast cancer cells
- test name: 17β-HSD Type I activity in T-47D cells (E1→E2)
- Format: cell-based
- conditions: T47D, read-out: % inhibition of 17β-HSD1 @ 10 μM, 10 μM; T-47D cells, E1→E2
Heads up, the class ranges for inhibition at 10 µM are bottom end = under 70%, midrange = from 70% up to 90%, top end = 90% and over

- molecule: "C[C@]12CCC3c4ccc(O)cc4CCC3C1CC(CC(=O)NCc1ccccn1)C2=O (stereo partly drawn) [compound 669]"
  category: "midrange"
- molecule: "CNC(=O)c1[nH]nc2c1CC1C3CCc4cc(O)ccc4C3CC[C@]21C (stereo partly drawn) [compound 893]"
  category: "bottom end"
- molecule: "CN1CCN(C(=O)c2[nH]nc3c2CC2C4CCc5cc(O)ccc5C4CC[C@]32C)CC1 (stereo partly drawn) [compound 897]"
  category: "bottom end"
- molecule: "Cc1cnc(CNC(=O)c2[nH]nc3c2CC2C4CCc5cc(O)ccc5C4CC[C@]32C)cn1 (stereo partly drawn) [compound 896]"
  category: "midrange"
- molecule: "CC(C)Cn1cc2c(n1)[C@@]1(C)CCC3c4ccc(O)cc4CCC3C1C2 (stereo partly drawn) [compound 812]"
  category: "midrange"
- molecule: "Cn1cc2c(n1)[C@@]1(C)CCC3c4ccc(O)cc4CCC3C1C2 (stereo partly drawn) [compound 785]"
  category: "top end"
- molecule: "C[C@]12CCC3c4ccc(O)cc4CCC3C1Cc1c2n[nH]c1C(=O)NCc1ccccn1 (stereo partly drawn) [compound 915]"
  category: "top end"
- molecule: "C[C@]12CCC3c4ccc(O)cc4CCC3C1CC(CC(=O)NCc1ccco1)C2=O (stereo partly drawn) [compound 672]"
  category: "midrange"
- molecule: "C[C@]12CCC3c4ccc(O)cc4CCC3C1Cc1c2n[nH]c1C(=O)NCC1CCCO1 (stereo partly drawn) [compound 892]"
  category: "midrange"
- molecule: "C[C@]12CCC3c4ccc(O)cc4CCC3C1Cc1c2n[nH]c1C(=O)NCCc1cccnc1 (stereo partly drawn) [compound 916]"
  category: "top end"
- molecule: "Cn1ncc2c1[C@@]1(C)CCC3c4ccc(O)cc4CCC3C1C2 (stereo partly drawn) [compound 786]"
  category: "bottom end"
